Experiment: Quantitative High-Throughput drug screen in 47 multiple myeloma cell lines against the NCATS MIPE library collection: JIM3_ECACC cell viability assay (AID 1918963; further: nearly all actives have a fitted effect of over 35% in size)
Conditions: JIM3 myeloma viability, CellTiter-Glo ATP, 48 h; series mostly up to 45.8 µM
Records with an inconclusive call do not appear. The source made the active and inactive calls. The call rests on the fitted dose curve; in most records, active means well fitted cell-killing curve with a large enough effect; inconclusive means small, poorly fitted or top-dose-only effect; inactive means no such curve, though single readings can be large or run the other way.
# output must be one of label 1 = active, label 0 = inactive

Observe how each entry below is paired with its result.
{"columns": ["MOLECULE", "ASSIGNED CLASS"],
 "data": [
  ["C#CCN(C)CC1=Cc2ccccc2Oc2ccccc21", "label 0"],
  ["Nc1[nH]nc2nnc(-c3c(-c4ccccc4)nn4ccccc34)cc12", "label 1"],
  ["COc1nc(C)cnc1NS(=O)(=O)c1cccnc1-c1ccc(-c2nnco2)cc1", "label 0"],
  ["O=C(c1ccc(C=Cc2n[nH]c3ccccc23)cc1)N1CCNCC1", "label 1"],
  ["Cn1c(=O)c(Oc2ccc(F)cc2F)cc2cnc(NC3CCOCC3)nc21", "label 0"]
]}

Next up:
Tell me the recorded outcome of this test for Cc1cccc2c1CC[C@H](CN1CCC(c3c(Cl)cccc3Cl)CC1)C[C@@H]2O .
label 1
